- ASSAYED_TARGET: RET(KD: 658-1114 G810R) (Homo sapiens, UniProt P07949, G810R)
- Construct: 658-1114; expressed in transfected cells; host or cells: 293T.165 (293T cells, generated in-house)
- TEST_NAME: HiBiT-Degradation, RET G810R degradation assay (Nano-Glo HiBiT Lytic), 293T.165 cells
- Type: cell-based
PARAMETER: 293T.165 RET(KD: 658-1114 G810R) 6.0 hours (IP) [nM]

>  <COMPOUND>
N#Cc1cnn2cc(-c3cnn([C@H]4CC[C@H](N5CCC(c6ccc(N[C@@H]7CCC(=O)NC7=O)cc6F)CC5)CC4)c3)nc(-c3ccc(N4CCC5(CC4)OCc4cccnc45)nc3)c12 (single isomer, unassigned) [Compound 180]

>  <TEST_VALUE>
++++ (<50 nM = ++++)

$$$$
>  <COMPOUND>
CCC1(C(=O)NC(C)C)CCN(c2ncc(-c3nc(-c4cnn(C5CCN(C(=O)CC6(O)CCN(c7ccc(NC8CCC(=O)NC8=O)cc7F)CC6)CC5)c4)cn4ncc(C#N)c34)cc2F)CC1 (stereo not drawn)

>  <TEST_VALUE>
++++ (<50 nM = ++++)

$$$$

* * *

- ASSAYED_TARGET: RET(KD: 658-1114 G810R) (Homo sapiens, UniProt P07949, G810R)
- Construct: 658-1114; expressed in transfected cells; host or cells: 293T.165 (293T cells, generated in-house)
- Sequence (P07949 658-1114 G810R): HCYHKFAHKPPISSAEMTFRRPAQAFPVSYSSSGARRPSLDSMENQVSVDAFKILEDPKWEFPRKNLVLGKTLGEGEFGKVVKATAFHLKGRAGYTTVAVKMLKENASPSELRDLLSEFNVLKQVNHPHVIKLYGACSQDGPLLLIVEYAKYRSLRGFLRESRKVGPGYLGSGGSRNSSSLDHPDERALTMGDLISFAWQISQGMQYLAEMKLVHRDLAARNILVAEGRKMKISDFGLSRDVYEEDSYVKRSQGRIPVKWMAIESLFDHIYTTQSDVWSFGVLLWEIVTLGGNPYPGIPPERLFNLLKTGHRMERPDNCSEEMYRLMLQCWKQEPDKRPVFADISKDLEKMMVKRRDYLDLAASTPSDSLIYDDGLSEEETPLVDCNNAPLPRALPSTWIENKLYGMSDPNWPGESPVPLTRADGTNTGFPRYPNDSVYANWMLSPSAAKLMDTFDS
- TEST_NAME: HiBiT-Degradation, RET G810R degradation assay (Nano-Glo HiBiT Lytic), 293T.165 cells
- Format: cell-based
- TEST_PARAMETERS: HiBiT-Degradation, 6.0 hours, read-out: 293T.165 RET(KD: 658-1114 G810R) 6.0 hours (DC50)

>  <COMPOUND>
CCC1(C(=O)NC(C)C)CCN(c2ccc(-c3nc(-c4cnn(C5CCN(C(=O)CN6C7CCC6CC(c6ccc(NC8CCC(=O)NC8=O)cc6)C7)CC5)c4)cn4ncc(C#N)c34)cn2)CC1 (stereo not drawn)

>  <DC50>
< 100 nM

$$$$
>  <COMPOUND>
N#Cc1cnn2cc(-c3cnn(C4CCN(C(=O)CN5CCC(c6ccc(OC7CCC(=O)NC7=O)cc6F)CC5)CC4)c3)nc(-c3ccc(N4CCN(Cc5cc(F)ccn5)CC4)cc3)c12 (stereo not drawn)

>  <DC50>
< 100 nM

$$$$
>  <COMPOUND>
CCC1(C(=O)NC(C)C)CCN(c2ccc(-c3nc(-c4cnn(C5CCN(C(=O)CC6(O)CCN(c7ccc(NC8CCC(=O)NC8=O)cc7F)CC6)CC5)c4)cn4ncc(C#N)c34)cn2)CC1 (stereo not drawn)

>  <DC50>
< 50 nM

$$$$

* * *

- ASSAYED_TARGET: RET(KD: 658-1114 G810R) (Homo sapiens, UniProt P07949, G810R)
- Construct: 658-1114; expressed in transfected cells; host or cells: 293T.165 (293T cells, generated in-house)
- TEST_NAME: HiBiT-Degradation, RET G810R degradation assay (Nano-Glo HiBiT Lytic), 293T.165 cells
- Format: cell-based
- TEST_PARAMETERS: 6.0 hours, % remaining protein, read-out: 293T.165 RET(KD: 658-1114 G810R) 6.0 hours (Emax)
Where a name gives a salt, the structure may show the parent alone.

>  <COMPOUND>
CCC1(C(=O)NC2CCC2)CCN(c2ccc(-c3nc(-c4cnn([C@H]5C[C@](F)(CN6CCN(c7ccc(N[C@@H]8CCC(=O)NC8=O)cc7F)CC6)C5)c4)cn4ncc(C#N)c34)cn2)CC1

>  <Emax>
< 30%

$$$$
>  <COMPOUND>
CC(C)NC(=O)C1(C(C)C)CCN(c2ccc(-c3cc(-c4cnn(C5CCN(C(=O)CN6CCC(c7ccc(NC8CCC(=O)NC8=O)cc7F)CC6)CC5)c4)cn4ncc(C#N)c34)cn2)CC1 (stereo not drawn)

>  <Emax>
< 50%

$$$$
>  <COMPOUND>
COc1cc(N2CCN([C@H]3CC[C@H](n4cc(-c5cn6ncc(C#N)c6c(-c6ccc(N7CC8CC(C7)N8Cc7ccccc7S(C)(=O)=O)nc6)n5)cn4)CC3)CC2)c(F)cc1NC1CCC(=O)NC1=O (stereo partly drawn)

>  <Emax>
< 30%

$$$$
>  <COMPOUND>
N#Cc1cnn2cc(-c3cnn(C4CCN(C(=O)CN5CCC(c6ccc(NC7CCC(=O)NC7=O)cc6)CC5)CC4)c3)cc(-c3ccc(N4CCN(C(=O)Cc5ccc(F)cn5)CC4)nc3)c12 (stereo not drawn) [Compound 15, formic acid salt]

>  <Emax>
< 30%

$$$$
>  <COMPOUND>
CC(C)NC(=O)C1(C)CCN(c2ccc(-c3cc(-c4cnn(CCCCCCN5CCC(c6ccc7c(N8CCC(=O)NC8=O)nn(C)c7c6)CC5)c4)cn4ncc(C#N)c34)cn2)CC1

>  <Emax>
< 30%

$$$$
>  <COMPOUND>
CC(C)(C)OC(=O)N1[C@@H]2COC[C@H]1CN(c1ccc(-c3nc(-c4cnn([C@H]5CC[C@@H](N6CCN(c7ccc(NC8CCC(=O)NC8=O)cc7F)CC6)CC5)c4)cn4ncc(C#N)c34)cn1)C2 (single isomer, unassigned)

>  <Emax>
< 30%

$$$$
>  <COMPOUND>
N#Cc1cnn2cc(-c3ccc(N4CCN(C(=O)CN5CCC(c6ccc(NC7CCC(=O)NC7=O)cc6)CC5)CC4)cc3)cc(-c3ccc(N4CCN(C(=O)Cc5ccc(F)cn5)CC4)nc3)c12 (stereo not drawn)

>  <Emax>
< 30%

$$$$
>  <COMPOUND>
CCC1(C(=O)NC2CCC2)CCN(c2ccc(-c3nc(-c4cnn([C@H]5CC[C@H](N6CCC(c7ccc8c(N9CCC(=O)NC9=O)nn(C)c8c7F)CC6)CC5)c4)cn4ncc(C#N)c34)cn2)CC1 (single isomer, unassigned)

>  <Emax>
< 30%

$$$$
>  <COMPOUND>
CCC1(C(=O)NC(C)C)CCN(c2ccc(-c3nc(-c4cnn(C5CCN(C(=O)CN6CCC(c7ccc(NC8CCC(=O)NC8=O)cc7)CC6)CC5)c4)cn4ncc(C#N)c34)cn2)CC1 (stereo not drawn)

>  <Emax>
< 30%

$$$$
>  <COMPOUND>
COCC1(Cc2ccccn2)CCN(c2ccc(-c3nc(-c4cnn(C5CCN(C(=O)CC6(O)CCN(c7ccc(NC8CCC(=O)NC8=O)cc7F)CC6)CC5)c4)cn4ncc(C#N)c34)cn2)CC1 (stereo not drawn)

>  <Emax>
< 30%

$$$$
>  <COMPOUND>
CCC1(C(=O)NC2CCOCC2)CCN(c2ccc(-c3nc(-c4cnn([C@H]5CC[C@H](N6CCC(c7ccc(N[C@H]8CCC(=O)NC8=O)cc7F)CC6)CC5)c4)cn4ncc(C#N)c34)cn2)CC1 (stereo in doubt)

>  <Emax>
< 30%

$$$$
>  <COMPOUND>
COc1ccc(CC2(O)CCN(c3ccc(-c4nc(-c5cnn([C@H]6CC[C@H](N7CCN(c8cc(OC)c(NC9CCC(=O)NC9=O)cc8F)CC7)CC6)c5)cn5ncc(C#N)c45)cn3)CC2)nc1 (stereo partly drawn)

>  <Emax>
< 30%

$$$$
>  <COMPOUND>
N#Cc1cnn2cc(-c3cnn(C4CCN(C(=O)CN5CCC(c6ccc(NC7CCC(=O)NC7=O)cc6F)CC5)CC4)c3)nc(-c3ccc(N4CCN(Cc5ccccn5)CC4)cc3)c12 (stereo not drawn)

>  <Emax>
< 50%

$$$$
>  <COMPOUND>
CCC1(C(=O)NC2CCOCC2)CCN(c2ccc(-c3cc(-c4cnn([C@H]5CC[C@H](CCN6CCC(c7ccc(NC8CCC(=O)NC8=O)cc7F)CC6)CC5)c4)cn4ncc(C#N)c34)cn2)CC1 (stereo partly drawn)

>  <Emax>
< 30%

$$$$
>  <COMPOUND>
COc1cc(N2CCN([C@H]3CC[C@H](n4cc(-c5cn6ncc(C#N)c6c(-c6ccc(N7C[C@@H]8[C@@H](CNC(=O)c9ncccc9Cl)[C@@H]8C7)nc6)n5)cn4)CC3)CC2)c(F)cc1NC1CCC(=O)NC1=O (stereo partly drawn)

>  <Emax>
< 30%

$$$$
>  <COMPOUND>
N#Cc1cnn2cc(-c3cnn(C4CCN(C(=O)NC5CCN(c6ccc(NC7CCC(=O)NC7=O)cc6F)CC5)CC4)c3)cc(-c3ccc(N4CCN(Cc5ccccn5)CC4)nc3)c12 (stereo not drawn)

>  <Emax>
< 50%

$$$$
>  <COMPOUND>
N#Cc1cnn2cc(-c3cnn([C@H]4CC[C@H](N5CCC(c6ccc(NC7CCC(=O)NC7=O)cc6F)CC5)CC4)c3)nc(-c3ccc(N4CCC5(CC4)OCc4cccnc45)nc3)c12 (single isomer, unassigned)

>  <Emax>
< 30%

$$$$
>  <COMPOUND>
CCC1(C(=O)NC(C)C)CCN(c2ccc(-c3nc(-c4cnn(C5CCN(C(=O)CC6(O)CCN(c7cc(OC)c(NC8CCC(=O)NC8=O)cc7F)CC6)CC5)c4)cn4ncc(C#N)c34)cn2)CC1 (stereo not drawn)

>  <Emax>
< 30%

$$$$
